z-score values for the compounds below.
Assay: modulators of S6 phosphorylation in cells, primary screen, cell-based, A549, cytoblot, luminescence, serum-stimulated (AID 1158);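 note: serum-stimulated A549 lung adenocarcinoma cells; signal is phosphorylated S6 detected by cytoblot immunostaining with HRP secondary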
Details: A549 phospho-S6 cytoblot, 5 h, higher = more signal
Number only, no unit.

Guide cases for z-score, answers given:
[
  {
    "Compound": "COCCOC(=O)N1C(=O)[C@@]2(c3cc(C#CCNC(N)=O)ccc31)[C@H](C(=O)Nc1nc3ccccc3s1)[C@H]1C(=O)O[C@H](c3ccccc3)[C@H](c3ccccc3)N1[C@@H]2c1ccc(OCCO)cc1",
    "z-score": -0.0692
  },
  {
    "Compound": "CC(C)(C)OC(=O)CC[C@]1(C(=O)N2CCOCC2)N=C(c2ccc(OCCCO)cc2)O[C@H]1c1ccccc1N=[N+]=[N-]",
    "z-score": -0.435
  },
  {
    "Compound": "CCCC#C[Si](O[C@H](CC)c1cn(Cc2cccc(Cl)c2)nn1)(C(C)C)C(C)C",
    "z-score": -0.131
  }
]

[ask] Would you kindly share the measured z-score for `CCCC[C@@H]1C[C@H]1[C@@H](NC(=O)c1cccs1)c1ccc(-c2ccccc2)cc1` ?
[reply] -0.993

[ask] Please do the same for `COc1cc2c(cc1OC)CN(C(=O)[C@@H]1[C@H]3C(=O)O[C@H](c4ccccc4)[C@H](c4ccccc4)N3[C@H](c3ccccc3OCCO)[C@@]13C(=O)Nc1ccc(C#CCCO)cc13)CC2` as well.
[reply] 0.212

[ask] Please do the same for C[C@H]1C2[C@H](Cc3ccccc3)NC(=O)[C@]23C(=O)N[C@H](Cc2ccccc2)C(=O)N2CCC[C@H]2C(=O)NC/C=C\C/C=C/C3[C@@H]2O[C@]12C (stereo partly specified) as well.
[reply] 0.477

====

Test: small-molecule binders of probe aInhba, primary screen, biochemical, small-molecule microarray, 635/667 nm fluorescence (AID 1148);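 note: score merges 667nm spot fluorescence with signal-to-noise for antibody binding to printed compounds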
Settings: higher = more signal
composite z-score values for the molecules below.
Number only, no unit.

Guide cases for composite z-score, answers given:
[
  {
    "Molecule": "C=C(CC1([C@@H](NP(=O)(c2ccccc2)c2ccccc2)[C@H]2C[C@@H]2CCCC)CC1)c1ccccc1",
    "Observed Measurement": 0.374
  },
  {
    "Molecule": "COCCOC(=O)N1C(=O)[C@@]2(c3cc(C#CCCO)ccc31)[C@H](C(=O)N1CCCCCCC1)[C@H]1C(=O)O[C@H](c3ccccc3)[C@H](c3ccccc3)N1[C@@H]2c1ccc(OCCO)cc1",
    "Observed Measurement": 1.38
  },
  {
    "Molecule": "COc1ccc(C#Cc2ccc3c(c2)[C@]2(C(=O)N3)[C@H](C(=O)NC[C@H](O)c3ccccc3)[C@H]3C(=O)O[C@H](c4ccccc4)[C@H](c4ccccc4)N3[C@@H]2c2ccc(O)cc2)cc1",
    "Observed Measurement": -0.128
  },
  {
    "Molecule": "C=C(COC)/C(=C/C[C@@H](OC(=O)c1ccncc1)c1ccc(CO)o1)c1cc(C(=O)OC)ccc1OC",
    "Observed Measurement": -0.0645
  },
  {
    "Molecule": "O=C1C2C=CC(C(O)c3cccc4ccccc34)N(Nc3ccccc3F)C2C(=O)N1c1ccccc1 (stereo unspecified)",
    "Observed Measurement": 0.103
  }
]

--- query ---
[ask] Would you kindly share the measured composite z-score for `C=CCOC(=O)[C@@H]1[C@H]2C(=O)O[C@H](c3ccccc3)[C@H](c3ccccc3)N2[C@H](c2ccc(OCCOC(=O)[C@@H]3C[C@@H]4C(=O)NCC(=O)N4[C@@H]3c3ccc(O)cc3)cc2)[C@@]12C(=O)Nc1ccc(I)cc12` ?
[reply] 0.029

Values were extracted from PubChem BioAssay.
